Tested on: Staphylococcus epidermidis
Assay: Antibacterial activity against methicillin-resistant Staphylococcus epidermidis 13-3 after 18 hrs by agar dilution method
Assay type: functional
Conditions: 13-3, 18 h
endpoint: MIC
Hey, just the number and the unit after it is fine.

Here are 7 compounds together with their reported answers.
CCc1cc2c3ccc(OC)c(OC)c3c(-c3ccccc3)[n+]3c2c2c(cc4c(c12)OCO4)CC3.[Br-] | 1 µg/mL
CCc1cc2c3ccc(OC)c(OC)c3c(-c3ccc(Cl)cc3)[n+]3c2c2c(cc4c(c12)OCO4)CC3.[Br-] | 1 µg/mL
COc1cc2c3c(ccc4c5ccc(OC)c(OC)c5c(-c5ccccc5)[n+](c43)CC2)c1OC.[Br-] | 4 µg/mL
CCCCc1cc2c3ccc(OC)c(OC)c3c(-c3ccccc3)[n+]3c2c2c(cc4c(c12)OCO4)CC3.[Br-] | 1 µg/mL
CCCc1cc2c3ccc(OC)c(OC)c3c[n+]3c2c2c(cc4c(c12)OCO4)CC3.[Cl-] | 4 µg/mL
CCCCc1cc2c3ccc(OC)c(OC)c3c(-c3ccc(Cl)cc3)[n+]3c2c2c(cc4c(c12)OCO4)CC3.[Br-] | 1 µg/mL
COc1ccc2c(c1OC)c(-c1ccc(C)cc1)[n+]1c3c2ccc2c4c(cc(c23)CC1)OCO4.[Br-] | 8 µg/mL

Lab note: next compound to report on.
[ask] Recall the recorded MIC for CCCc1cc2c3ccc(OC)c(OC)c3c(-c3ccc(Cl)cc3)[n+]3c2c2c(cc4c(c12)OCO4)CC3.[Br-] with Staphylococcus epidermidis and state it.
[reply] 4 µg/mL

All figures here come from ChEMBL document CHEMBL4340517.
